Would you kindly list IC50 for each of these compounds?
measured_target: CDK12 complexed with Cyclin K (Homo sapiens, UniProt Q9NYV4)
Construct: GST (N)
Sequence (Q9NYV4 whole entry): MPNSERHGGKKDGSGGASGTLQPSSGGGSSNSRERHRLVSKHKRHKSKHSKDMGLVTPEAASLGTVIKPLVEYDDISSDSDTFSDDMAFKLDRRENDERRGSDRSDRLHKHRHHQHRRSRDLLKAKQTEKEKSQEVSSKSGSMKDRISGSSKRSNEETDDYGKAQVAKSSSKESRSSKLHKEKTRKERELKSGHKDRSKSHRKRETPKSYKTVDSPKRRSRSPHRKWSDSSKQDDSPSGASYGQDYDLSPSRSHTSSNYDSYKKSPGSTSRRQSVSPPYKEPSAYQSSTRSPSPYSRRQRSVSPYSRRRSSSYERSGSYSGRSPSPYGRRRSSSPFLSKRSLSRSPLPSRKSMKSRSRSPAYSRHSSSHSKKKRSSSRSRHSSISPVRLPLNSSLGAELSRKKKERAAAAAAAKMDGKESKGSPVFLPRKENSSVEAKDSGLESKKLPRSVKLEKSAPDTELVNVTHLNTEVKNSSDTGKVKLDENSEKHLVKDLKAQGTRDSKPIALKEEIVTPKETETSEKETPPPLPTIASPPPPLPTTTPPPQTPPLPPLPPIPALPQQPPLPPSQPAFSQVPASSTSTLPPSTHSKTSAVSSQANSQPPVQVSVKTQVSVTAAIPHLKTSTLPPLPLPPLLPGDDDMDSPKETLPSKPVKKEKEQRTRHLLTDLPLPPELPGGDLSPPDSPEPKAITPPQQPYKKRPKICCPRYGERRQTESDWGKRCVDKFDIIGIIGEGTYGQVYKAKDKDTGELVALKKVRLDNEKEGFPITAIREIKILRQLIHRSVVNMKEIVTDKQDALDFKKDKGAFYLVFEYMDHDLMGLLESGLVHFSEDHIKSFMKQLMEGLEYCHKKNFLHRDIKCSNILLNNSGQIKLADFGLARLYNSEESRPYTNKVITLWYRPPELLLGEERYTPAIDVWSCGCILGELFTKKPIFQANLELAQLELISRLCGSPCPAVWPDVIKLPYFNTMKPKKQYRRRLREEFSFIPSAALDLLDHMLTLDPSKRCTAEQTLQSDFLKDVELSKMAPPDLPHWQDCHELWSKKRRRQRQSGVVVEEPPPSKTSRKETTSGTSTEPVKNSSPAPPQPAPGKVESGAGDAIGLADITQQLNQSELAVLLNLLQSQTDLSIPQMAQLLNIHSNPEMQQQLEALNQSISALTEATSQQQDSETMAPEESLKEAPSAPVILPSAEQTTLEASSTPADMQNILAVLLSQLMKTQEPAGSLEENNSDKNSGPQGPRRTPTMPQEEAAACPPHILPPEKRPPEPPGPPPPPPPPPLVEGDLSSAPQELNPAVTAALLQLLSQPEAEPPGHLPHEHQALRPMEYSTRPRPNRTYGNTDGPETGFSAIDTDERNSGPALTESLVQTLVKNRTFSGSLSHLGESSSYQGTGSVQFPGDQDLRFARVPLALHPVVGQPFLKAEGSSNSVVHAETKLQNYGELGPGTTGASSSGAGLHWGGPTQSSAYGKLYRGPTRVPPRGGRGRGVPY
Sequence (O75909 whole entry partner): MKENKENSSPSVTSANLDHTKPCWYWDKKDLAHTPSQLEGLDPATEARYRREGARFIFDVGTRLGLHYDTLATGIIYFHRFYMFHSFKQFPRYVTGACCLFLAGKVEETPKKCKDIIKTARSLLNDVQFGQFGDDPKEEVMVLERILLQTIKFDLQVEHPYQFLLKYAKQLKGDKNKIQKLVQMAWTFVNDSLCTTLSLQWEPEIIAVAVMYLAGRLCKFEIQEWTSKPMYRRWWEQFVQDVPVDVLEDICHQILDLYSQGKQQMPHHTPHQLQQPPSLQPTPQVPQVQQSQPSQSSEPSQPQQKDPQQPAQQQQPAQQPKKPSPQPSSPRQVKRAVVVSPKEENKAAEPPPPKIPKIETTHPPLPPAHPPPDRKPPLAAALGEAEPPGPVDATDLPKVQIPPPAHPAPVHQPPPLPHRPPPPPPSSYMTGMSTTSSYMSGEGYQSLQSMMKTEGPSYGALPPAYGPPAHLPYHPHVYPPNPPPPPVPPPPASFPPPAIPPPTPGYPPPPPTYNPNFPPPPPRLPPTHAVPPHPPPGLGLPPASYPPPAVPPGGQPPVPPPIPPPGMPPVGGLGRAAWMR
test_protocol: Alternative CDK Enzymatic Assays (HTRF, pre-incubation with compounds and 1 mM ATP), Example A2
Type: biochemical
condition_context: enzyme pre-incubated with compounds and 1 mM ATP for 60 minutes; reaction 120 minutes at 25° C.

Q: Lookup: IC50 / CDK12 complexed with Cyclin K (Homo sapiens, UniProt Q9NYV4) / `Cc1cc2c(cc1NC(=O)/C=C/CN(C)C)nc(N1C[C@H](F)C[C@@H](Nc3ncc(C(F)(F)F)cn3)C1)n2C`
A: > 0.5 µM

Q: Lookup: IC50 / CDK12 complexed with Cyclin K (Homo sapiens, UniProt Q9NYV4) / `C=CC(=O)Nc1ccc2c(c1)nc(N1CCC[C@@H](Nc3ncc(C#N)c(N4CC[C@@H](N(C)C)C4)n3)C1)n2C`
A: < 0.05 µM

Q: Lookup: IC50 / CDK12 complexed with Cyclin K (Homo sapiens, UniProt Q9NYV4) / `C=CC(=O)Nc1ccc2c(c1)nc(N1CC[C@H](F)[C@@H](Nc3ncc(C#N)cn3)C1)n2C`
A: < 0.05 µM

Q: Lookup: IC50 / CDK12 complexed with Cyclin K (Homo sapiens, UniProt Q9NYV4) / `Cc1cc2c(cc1NC(=O)/C=C/C(C)(C)O)nc(N1C[C@H](F)C[C@@H](Nc3ncc(C(F)(F)F)cn3)C1)n2C`
A: > 0.5 µM

Q: Lookup: IC50 / CDK12 complexed with Cyclin K (Homo sapiens, UniProt Q9NYV4) / `C=CC(=O)Nc1c(C(C)C)cc2c(nc(N3CCC[C@@H](Nc4ncc(C(F)(F)F)cn4)C3)n2C)c1C`
A: < 0.05 µM

Q: Lookup: IC50 / CDK12 complexed with Cyclin K (Homo sapiens, UniProt Q9NYV4) / `C=CC(=O)Nc1cc2nc(N3C[C@H](F)C[C@@H](Nc4ncc(C#N)c(C)n4)C3)n(C)c2cc1C`
A: 0.05 to 0.5 µM

Q: Lookup: IC50 / CDK12 complexed with Cyclin K (Homo sapiens, UniProt Q9NYV4) / `C=CC(=O)Nc1cc2nc(N3C[C@H](F)C[C@@H](Nc4ncc(C(F)(F)F)cn4)C3)n(C)c2cc1C(=O)N1CCCC1`
A: 0.05 to 0.5 µM

Q: Lookup: IC50 / CDK12 complexed with Cyclin K (Homo sapiens, UniProt Q9NYV4) / `C=CC(=O)Nc1ccc2c(c1)nc(N1CC[C@@H](F)[C@@H](Nc3ncc(C#N)cn3)C1)n2C`
A: < 0.05 µM

Q: Lookup: IC50 / CDK12 complexed with Cyclin K (Homo sapiens, UniProt Q9NYV4) / `C=CC(=O)Nc1c(C)cc2c(nc(N3C[C@H](F)C[C@@H](Nc4ncc(C(F)(F)F)cn4)C3)n2C)c1C`
A: > 0.5 µM

Q: Lookup: IC50 / CDK12 complexed with Cyclin K (Homo sapiens, UniProt Q9NYV4) / `C=CC(=O)Nc1cc2nc(N3C[C@H](F)C[C@@H](Nc4ncc(C#N)c(N(C)C)n4)C3)n(C)c2cc1C`
A: 0.05 to 0.5 µM

Q: Lookup: IC50 / CDK12 complexed with Cyclin K (Homo sapiens, UniProt Q9NYV4) / `Cc1cc2c(cc1NC(=O)/C=C\CN(C)C)nc(N1C[C@H](F)C[C@@H](Nc3ncc(C(F)(F)F)cn3)C1)n2C`
A: > 0.5 µM

Q: Lookup: IC50 / CDK12 complexed with Cyclin K (Homo sapiens, UniProt Q9NYV4) / `C=CC(=O)Nc1cc2nc(N3CCC[C@@H](Nc4ncc(C(F)(F)F)cn4)C3)n(C)c2cc1C1CC1`
A: < 0.05 µM

Q: Lookup: IC50 / CDK12 complexed with Cyclin K (Homo sapiens, UniProt Q9NYV4) / `C=CC(=O)Nc1ccc2c(nc(N3CCC[C@@H](Nc4ncc(C(F)(F)F)cn4)C3)n2C)c1C`
A: < 0.05 µM

Q: Lookup: IC50 / CDK12 complexed with Cyclin K (Homo sapiens, UniProt Q9NYV4) / `C=CC(=O)Nc1ccc2c(c1)nc(N1CCC[C@@H](Nc3ncc(C(F)(F)F)c(N4CCN(C)CC4)n3)C1)n2C`
A: < 0.05 µM

Q: Lookup: IC50 / CDK12 complexed with Cyclin K (Homo sapiens, UniProt Q9NYV4) / `C=CC(=O)Nc1cc2nc(N3CC[C@H](O)[C@@H](Nc4ncc(C(F)(F)F)cn4)C3)n(C)c2cc1C`
A: > 0.5 µM

Q: Lookup: IC50 / CDK12 complexed with Cyclin K (Homo sapiens, UniProt Q9NYV4) / `[2H]C([2H])([2H])c1cc2c(cc1NC(=O)C=C)nc(N1C[C@H](F)C[C@@H](Nc3ncc(C(F)(F)F)cn3)C1)n2C`
A: < 0.05 µM

Q: Lookup: IC50 / CDK12 complexed with Cyclin K (Homo sapiens, UniProt Q9NYV4) / `C=CC(=O)Nc1cc2nc(N3C[C@H](F)C[C@@H](Nc4ncc(C(F)(F)F)cn4)C3)n(C)c2cc1C`
A: < 0.05 µM

Q: Lookup: IC50 / CDK12 complexed with Cyclin K (Homo sapiens, UniProt Q9NYV4) / `C=CC(=O)Nc1cc2nc(N3C[C@H](F)C[C@@H](Nc4ncc(C(F)(F)F)cn4)C3)n(C)c2cc1N1CCOCC1`
A: 0.05 to 0.5 µM

Q: Lookup: IC50 / CDK12 complexed with Cyclin K (Homo sapiens, UniProt Q9NYV4) / C=CC(=O)N1CCCCC1c1nccn2c(N3CCC[C@@H](Nc4ncc(C(F)(F)F)cn4)C3)ncc12 (some centres unmarked)
A: 0.05 to 0.5 µM

Q: Lookup: IC50 / CDK12 complexed with Cyclin K (Homo sapiens, UniProt Q9NYV4) / `C=CC(=O)Nc1cc2nc(N3C[C@H](F)C[C@@H](Nc4ncc(C(F)(F)F)cn4)C3)n(C)c2cc1C(=O)N1CCOCC1`
A: 0.05 to 0.5 µM

FYI, the data here is from patent US12643881B2.
